Tested on: Kasumi-1
Assay: CellTox Green cytotoxicity fluorescence relative to DMSO vehicle (fold of vehicle RFU); higher = more cell death (loss of membrane integrity), active = 2 or more
Conditions: 0.1 µM; 48 h
measured-metric: CellTox Green cytotoxicity fluorescence

1. CCCCC(C=O)NC(=O)C(CC(C)C)NC(=O)C(CC(C)C)NC(C)=O (configuration not stated); 1 (inactive)
2. CCOC(=O)C1=C(N)Oc2ccc(Br)cc2C1C(C#N)C(=O)OCC (configuration not stated); 0.902 (inactive)
3. CCOC(=O)c1[nH]c2cc(Cl)ccc2c1C(C(=O)NC(C)(C)C)N(C=O)Cc1ccc(Cl)cc1 (configuration not stated); 0.982 (inactive)
4. c1ccc2c(CCNc3ccc(Nc4ccncc4)cc3)c[nH]c2c1; 0.964 (inactive)
5. CCCCCCCCCCCC1=C(O)C(=O)C=C(O)C1=O; 0.999 (inactive)
6. COc1nc(OCc2cccc(-c3ccccc3)c2C)ccc1CNCCNC(C)=O; 1.02 (inactive)
7. CC(=NNC(=S)N1CCC1)c1ccccn1; 1.18 (inactive)
8. Nc1nc(F)nc2c1ncn2[C@@H]1O[C@H](CO)[C@@H](O)[C@@H]1O; 0.99 (inactive)
9. C=CC(=O)N1CCC(Oc2cc3c(Nc4ccc(Cl)c(Cl)c4F)ncnc3cc2OC)CC1; 1.02 (inactive)
10. Cc1nn(C)c(COc2ccc(N3CCN(S(=O)(=O)N(C)C)CC3)cc2)c1-c1cccc2c(CCCOc3cccc4ccccc34)c(C(=O)O)n(CCN3CCOCC3)c12; 1.03 (inactive)

Looking for the measured CellTox Green cytotoxicity fluorescence of NS(=O)(=O)C#Cc1ccccc1 , can you help? 0.98 (inactive)

Looking for the measured CellTox Green cytotoxicity fluorescence of CN(C)CC[C@H](CSc1ccccc1)Nc1ccc(S(=O)(=O)NC(=O)c2ccc(N3CCN(Cc4ccccc4-c4ccc(Cl)cc4)CC3)cc2)cc1[N+](=O)[O-] , can you help? 1.49 (inactive)

Looking for the measured CellTox Green cytotoxicity fluorescence of C/C(=N\NC(=O)c1cccc(S(=O)(=O)N2CCOCC2)c1)c1cc(Cl)ccc1O , can you help? 0.986 (inactive)

Looking for the measured CellTox Green cytotoxicity fluorescence of CCS(=O)(=O)N1CCN(c2ccc(Nc3ncc(C(N)=O)c(NC4CC4)n3)cc2)CC1 , can you help? 1.06 (inactive)

Looking for the measured CellTox Green cytotoxicity fluorescence of CC1(C)CC[C@]2(NC(=O)C(C)(F)F)CC[C@]3(C)[C@H](C(=O)C=C4[C@@]5(C)C=C(C#N)C(=O)C(C)(C)[C@@H]5CC[C@]43C)[C@@H]2C1 , can you help? 1 (inactive)

Looking for the measured CellTox Green cytotoxicity fluorescence of C=CC(=O)N1CCN(C(=O)CNc2cc(I)c(Cl)cc2O)CC1 [K-Ras(G12C) inhibitor 12] , can you help? 0.982 (inactive)

Looking for the measured CellTox Green cytotoxicity fluorescence of CC(C)[C@H](CO)Nc1nc(Nc2cccc(Cl)c2)c2ncn(C(C)C)c2n1 , can you help? 0.965 (inactive)
